All figures here come from ChEMBL document CHEMBL1158551.

- Test system: Staphylococcus aureus
- assay.method.text: Antibacterial activity against methicillin-[…] Staphylococcus aureus ATCC 29213 by broth microdilution method
- Type: functional
Listed here: items and their measured MIC.
The answer is to be given in µg/mL; state only the numeric part.

// recorded MIC for COC(=O)[C@@H]1NC(=O)[C@H]2NC(=O)[C@H](NC(=O)[C@@H]3NC(=O)[C@H]4NC(=O)[C@H](NC(=O)[C@H](n5cc(CO[C@H]6O[C@H](COC(C)=O)[C@@H](OC(C)=O)[C@H](OC(C)=O)[C@H]6NC(C)=O)nn5)c5ccc(O)c(c5)Oc5cc4cc(O)c5C)[C@H](O)c4ccc(cc4)Oc4cc3cc(c4O)Oc3ccc(cc3)[C@H]2O)c2ccc(O)c(c2)-c2c(O)cc(O)cc21 : 0.5

// recorded MIC for COC(=O)[C@@H]1NC(=O)[C@H]2NC(=O)[C@H](NC(=O)[C@@H]3NC(=O)[C@H]4NC(=O)[C@H](NC(=O)[C@H](n5cc(CO[C@H]6O[C@H](CO)[C@@H](O[C@H]7O[C@H](CO)[C@@H](O)[C@H](O)[C@H]7O)[C@H](O)[C@H]6O)nn5)c5ccc(O)c(c5)Oc5cc4cc(O)c5C)[C@H](O)c4ccc(cc4)Oc4cc3cc(c4O)Oc3ccc(cc3)[C@H]2O)c2ccc(O)c(c2)-c2c(O)cc(O)cc21 : 4

// recorded MIC for COC(=O)[C@@H]1NC(=O)[C@H]2NC(=O)[C@H](NC(=O)[C@@H]3NC(=O)[C@H]4NC(=O)[C@H](NC(=O)[C@H](n5cc(CO[C@H]6O[C@H](COC(C)=O)[C@@H](OC(C)=O)[C@H](OC(C)=O)[C@H]6OC(C)=O)nn5)c5ccc(O)c(c5)Oc5cc4cc(O)c5C)[C@H](O)c4ccc(cc4)Oc4cc3cc(c4O)Oc3ccc(cc3)[C@H]2O)c2ccc(O)c(c2)-c2c(O)cc(O)cc21 : 4

###

Listed here: items and their measured MBC.
- Test system: Staphylococcus aureus
- assay.method.text: Antibacterial activity against methicillin-[…] Staphylococcus aureus ATCC 33591 by broth microdilution method
- Type: functional
The answer is to be given in µg/mL; state only the numeric part.

test_smiles=COC(=O)[C@H]1NC(=O)[C@H]2NC(=O)[C@H](NC(=O)[C@@H]3NC(=O)[C@H]4NC(=O)[C@H](NC(=O)[C@H](N=[N+]=[N-])c5ccc(O)c(c5)Oc5cc4cc(O)c5C)[C@H](O)c4ccc(cc4)Oc4cc3cc(c4O)Oc3ccc(cc3)[C@H]2O)c2ccc(O)c(c2)-c2c(O)cc(O)cc21 readout_name=MBC reported_result=2

From here, focus on the item given below.
// recorded MBC for COC(=O)[C@@H]1NC(=O)[C@H]2NC(=O)[C@H](NC(=O)[C@@H]3NC(=O)[C@H]4NC(=O)[C@H](NC(=O)[C@H](n5cc(CO[C@H]6O[C@H](COC(C)=O)[C@@H](OC(C)=O)[C@H](OC(C)=O)[C@H]6OC(C)=O)nn5)c5ccc(O)c(c5)Oc5cc4cc(O)c5C)[C@H](O)c4ccc(cc4)Oc4cc3cc(c4O)Oc3ccc(cc3)[C@H]2O)c2ccc(O)c(c2)-c2c(O)cc(O)cc21 : 8

###

Listed here: items and their measured pEC50.
- Tested on: Influenza B virus
- assay.method.text: Antiviral activity against influenza B virus assessed as cell viability by cell based MTS assay
- Type: functional, organism-based
pEC50: −log10 of the molar value.

test_smiles=COC(=O)[C@@H]1NC(=O)[C@H]2NC(=O)[C@H](NC(=O)[C@@H]3NC(=O)[C@H]4NC(=O)[C@H](NC(=O)[C@H](n5cc(CO[C@H]6O[C@H](CO)[C@@H](O)[C@H](O)[C@H]6NC(C)=O)nn5)c5ccc(O)c(c5)Oc5cc4cc(O)c5C)[C@H](O)c4ccc(cc4)Oc4cc3cc(c4O)Oc3ccc(cc3)[C@H]2O)c2ccc(O)c(c2)-c2c(O)cc(O)cc21 readout_name=pEC50 reported_result=4.40
test_smiles=COC(=O)[C@@H]1NC(=O)[C@H]2NC(=O)[C@H](NC(=O)[C@@H]3NC(=O)[C@H]4NC(=O)[C@H](NC(=O)[C@H](n5cc(CO[C@H]6O[C@H](COC(C)=O)[C@@H](OC(C)=O)[C@H](OC(C)=O)[C@H]6NC(C)=O)nn5)c5ccc(O)c(c5)Oc5cc4cc(O)c5C)[C@H](O)c4ccc(cc4)Oc4cc3cc(c4O)Oc3ccc(cc3)[C@H]2O)c2ccc(O)c(c2)-c2c(O)cc(O)cc21 readout_name=pEC50 reported_result="< 4.00"

From here, focus on the item given below.
// recorded pEC50 for COC(=O)[C@H]1NC(=O)[C@H]2NC(=O)[C@H](NC(=O)[C@@H]3NC(=O)[C@H]4NC(=O)[C@H](NC(=O)[C@H](n5cc(CO[C@@H]6O[C@@H](C)[C@H](O)[C@@H](O)[C@H]6O)nn5)c5ccc(O)c(c5)Oc5cc4cc(O)c5C)[C@H](O)c4ccc(cc4)Oc4cc3cc(c4O)Oc3ccc(cc3)[C@H]2O)c2ccc(O)c(c2)-c2c(O)cc(O)cc21 : < 4.00
